Listing of recorded MIC, Kp by entry.
# Test system: Klebsiella pneumoniae
# MEASUREMENT_NOTES: In vitro antibacterial activity, MIC by broth dilution
# Assay type: cell-based
# RUN_CONDITIONS: 20-72 hours at 37° C., Nutrient Broth
Quick note: give the figure in µM, leave out the unit.

Example cases with answers are listed next.
# MOLECULE_SMILES, PROPERTY_NAME, RECORDED_MEASUREMENT
data = [
    ("CCn1cc(C(=O)O)c(=O)c2cc(F)c(N3CCN(CC(=NO)c4ccccc4)CC3)cc21", "MIC, Kp", 0.22),
    ("CCn1cc(C(=O)O)c(=O)c2cc(F)c(N3CCN(CC(=NO)c4ccc(OC)cc4)CC3)cc21", "MIC, Kp", 0.027),
    ("CCn1cc(C(=O)O)c(=O)c2cc(F)c(N3CCN(CC(=O)c4ccccc4)CC3)c(F)c21", "MIC, Kp", 0.055),
]

Value of MIC, Kp reported for the compound CCn1cc(C(=O)O)c(=O)c2cc(F)c(N3CCN(CC(=NO)c4ccc(OC)cc4)CC3)c(F)c21 is 0.10
